System: SF-268
assay-summary: NCI tumour cell line growth inhibition, 48 h
The source made the active and inactive calls. No stated cut-off is given here; in the data, active = GI50 up to about 1.1 µM and inactive = higher.
property: GI50

The following compounds have reported results that may help.
compound: C=C1C(C[C@@H]2O[C@H]3C[C@H]4O[C@@]5(C[C@@H]6O[C@]7(C[C@H](C)[C@@H]8O[C@@H]9CC(C(O)CO)O[C@@H]9C[C@@H]8O7)C[C@H](C)[C@@H]6O5)C[C@H]4O[C@H]3[C@H](C)[C@H]2O)O[C@@H](CC[C@@H]2O[C@@H](CC[C@@]34CC5O[C@H]6C(O[C@H]7CC[C@H](CC(=O)OC)O[C@@H]7[C@@H]6O3)[C@H]5O4)CC2=C)C[C@H]1C (some centres not stated)
GI50: 0.000184 µM (active)
--
compound: CN(C)CCn1c(=O)c2ccc3c4c(nn3CCN(C)C)c3cc(N)ccc3n(c1=O)c24
GI50: < 0.01 µM (active)
--
compound: COc1ccc(N2C(=O)/C(=C\c3ccccc3)SC2c2cc(OC)c(OC)c(OC)c2)cc1 (configuration not stated)
GI50: > 100 µM (inactive)
--
compound: CSC(=S)OC1CC(n2cnc3c(NC(=O)c4ccccc4)ncnc32)OC1CO[Si](C)(C)C(C)(C)C (configuration not stated)
GI50: 30.7 µM (inactive)
--
compound: OC(CCN1CCN(CCOC(c2ccccc2)c2ccccc2)CC1)c1ccccc1 (configuration not stated)
GI50: 22.8 µM (inactive)

Would you mind telling me what GI50 value was observed for COc1ccc2c(c1)CC[C@@H]1C2CC[C@](C)(C#N)C1CC#N (some centres not stated) ?
> 100 µM (inactive)

Consider the compound "O=c1/c(=C/c2ccccc2[N+](=O)[O-])sc2nc3ccccc3n12" and give its measured GI50.
29.9 µM (inactive)
